// values below are reported IC50
# system: IRAK4 enzyme (Homo sapiens)
# Construct: purchased Carna Biosciences, Chuo-ku, Kobe, Japan
# Sequence (Q9NWZ3 1-460): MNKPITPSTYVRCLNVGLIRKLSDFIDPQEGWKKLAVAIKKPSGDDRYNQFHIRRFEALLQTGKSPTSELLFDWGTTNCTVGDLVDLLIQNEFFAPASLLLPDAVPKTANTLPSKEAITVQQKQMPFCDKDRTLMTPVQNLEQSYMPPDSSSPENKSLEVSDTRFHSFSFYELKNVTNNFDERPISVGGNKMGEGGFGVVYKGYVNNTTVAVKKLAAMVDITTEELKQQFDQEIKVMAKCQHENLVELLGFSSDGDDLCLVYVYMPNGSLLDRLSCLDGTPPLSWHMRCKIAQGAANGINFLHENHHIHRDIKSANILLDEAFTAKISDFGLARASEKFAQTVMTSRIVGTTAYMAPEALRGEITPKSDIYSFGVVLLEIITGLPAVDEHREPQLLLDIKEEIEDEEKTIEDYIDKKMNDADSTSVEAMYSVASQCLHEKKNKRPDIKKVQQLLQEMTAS
# test_protocol: IRAK4 Biochemical Assay (TR-FRET, STK1 KinEASE)
# condition_context: 500 μM ATP, Table 2 second part (compounds 33-343), read-out: IC50 IRAK4-HTBS
# Experimental: IRAK4 enzyme (Carna Biosciences, Chuo-ku, Kobe, Japan) activity was measured by detecting phosphorylated peptide substrate formation using an antibody against the phosphorylated peptide substrate. This is a time-resolved fluorescence resonance energy transfer (TR-FRET) immunoassay, based on the STK1 KinEASE Assay (Cisbio, Bedford, Massachusetts). […] Fluorescence intensities at 615 nm and 665 nm emission wavelengths were expressed as a ratio (665 nm/615 nm).
readout_type: IC50 (nM)

| smi | readout_type | display_unit | observed_measurement |
| --- | --- | --- | --- |
| CNc1cc(-c2ccc3cc(C#N)cnn23)ncc1-c1nnc([C@H]2C[C@H](NC(C)=O)C2)s1 | IC50 | nM | 0.59 |
| CC(=O)N[C@@H]1[C@@H]2CC[C@H]1CN(c1nnc(-c3cnc(-c4ccc5cc(C#N)cnn45)cc3NC3(C)CCOCC3)s1)C2 | IC50 | nM | 1.1 |
| CC(=O)N[C@@H]1[C@@H]2CCC[C@H]1CN(c1nnc(-c3cnc(-c4ccc5cc(C#N)cnn45)cc3NC(C)C)s1)C2 | IC50 | nM | 0.66 |
| C[C@H](C#N)Nc1cc(-c2ccc3cc(C#N)cnn23)ncc1-c1nnc([C@H]2CC[C@H](NC(=O)C3CC3)CC2)s1 | IC50 | nM | 0.52 |
| CC(C)Nc1cc(-c2ccc3cc(C#N)cnn23)ncc1-c1nnc(N2C[C@H]3CC[C@@H](C2)[C@@H]3NC(=O)C2CCN(C)CC2)s1 | IC50 | nM | 0.8 |
